This collection of values is drawn from paper PMC11722285.

Listing of entries alongside the reported IC50.
- Test system: L. braziliensis stationary promastigotes
- experiment_summary: In vitro antileishmanial activity, stationary promastigotes (MTT)
- Type: cell-based
- measurement_setup: Leishmania braziliensis; stationary promastigotes; 48 h; mean ± SD; read-out: IC50 (µM) Stationary Promastigotes L. braziliensis
recorded_metric: IC50 (µM)

[
  {
    "molecule": "C[C@@H]1[C@H](O)[C@@H](C)/C=C/C=C/C=C/C=C/C=C/C=C/C=C/[C@H](O[C@@H]2O[C@H](C)[C@@H](O)[C@H](N)[C@@H]2O)C[C@@H]2O[C@](O)(C[C@@H](O)C[C@@H](O)[C@H](O)CC[C@@H](O)C[C@@H](O)CC(=O)O[C@H]1C)C[C@H](O)[C@H]2C(=O)O [AmpB, amphotericin B, reference compound]",
    "recorded_metric": "IC50",
    "units_symbol": "µM",
    "numeric_result": 0.09
  },
  {
    "molecule": "COc1cc(O)c2c(=O)cc(-c3ccccc3O)oc2c1 [Echioidinin, echioidinin]",
    "recorded_metric": "IC50",
    "units_symbol": "µM",
    "numeric_result": 251
  }
]

###

- System: L. infantum stationary promastigotes
- experiment_summary: In vitro antileishmanial activity, stationary promastigotes (MTT)
- Type: cell-based
- measurement_setup: Leishmania infantum, 48 h, read-out: IC50 (µM) Stationary Promastigotes L. infantum

[
  {
    "chemical_smiles": "COc1cc(-c2[o+]c3cc(O)cc(O)c3cc2O)cc(OC)c1O",
    "IC50, µM": 141
  }
]

###

- System: L. braziliensis stationary promastigotes
- experiment_summary: In vitro antileishmanial activity, stationary promastigotes (MTT)
- Type: cell-based
- measurement_setup: Leishmania braziliensis, 48 h, read-out: IC50 (µM) Stationary Promastigotes L. braziliensis

[
  {
    "chemical_smiles": "COc1cc(-c2[o+]c3cc(O)cc(O)c3cc2O)cc(OC)c1O",
    "IC50": "164 µM"
  }
]
